testMethodNotes: viability loss with induced miR-34 in A549 – imaging, A549 dox-inducible miR-34, nuclei and caspase counts, primary screen (AID 1347080)
testParameters: A549 miR-34 inducible, Hoechst nuclei count, 48 h; measured here: total cells without miR-34 induction
experimentalReadout: cell count
Give the figure only, with no unit attached.

Ask | What does the data say about its cell count? Entry: O=C(NCCc1ccco1)c1cc(C2CC2)[nH]n1
Reply | 10200

Ask | Item O=C(O)c1cccnc1Nc1ccc(Cl)cc1 has what recorded cell count?
Reply | 4840

Ask | Consider the compound CC(C)C[C@@H](/C=C/S(C)(=O)=O)NC(=O)[C@H](CC(C)C)NC(=O)[C@H](CC(C)C)NC(=O)OCc1ccccc1 and give its measured cell count.
Reply | 666

Ask | Quick one: cell count of CC(C)(C)NCC(O)COc1ccccc1C1CCCC1 (stereo unspecified) ?
Reply | 8880

Ask | Fill in the blank: the reported cell count of CCC(NC(=O)C(C)NC)C(=O)N1CC(O)CC1Cc1c(-c2[nH]c3cc(F)ccc3c2CC2CC(O)CN2C(=O)C(CC)NC(=O)C(C)NC)[nH]c2cc(F)ccc12 (stereo unspecified) is ____.
Reply | 9540

Ask | cell count lookup needed for COc1cc(-c2cc(-c3cccc(O)c3)cnc2N)cc(OC)c1OC , thanks.
Reply | 6700

Ask | I am curious: what cell count value has been reported for CC(=O)C(C)=O ?
Reply | 9490

Ask | Quick one: cell count of O=C(NN=Cc1ccc(O)c(O)c1)c1cc2ccccc2cc1O ?
Reply | 8550

Ask | Report cell count for COc1cc(OC)cc(-c2cc3cnc(N)nc3nc2NC(=O)NC(C)(C)C)c1 please.
Reply | 4320

Ask | // cell count lookup, key: O=C(O)c1cnn(-c2ccccc2)c1
Reply | 9840

Ask | Look up cell count: C[N+](C)(C)CC=O
Reply | 10200

* * *

subjectOfTest: Mitogen-activated protein kinase 7 (Homo sapiens) (UniProt Q13164)
Sequence (Q13164 whole entry, looked up, the tested form may be a part): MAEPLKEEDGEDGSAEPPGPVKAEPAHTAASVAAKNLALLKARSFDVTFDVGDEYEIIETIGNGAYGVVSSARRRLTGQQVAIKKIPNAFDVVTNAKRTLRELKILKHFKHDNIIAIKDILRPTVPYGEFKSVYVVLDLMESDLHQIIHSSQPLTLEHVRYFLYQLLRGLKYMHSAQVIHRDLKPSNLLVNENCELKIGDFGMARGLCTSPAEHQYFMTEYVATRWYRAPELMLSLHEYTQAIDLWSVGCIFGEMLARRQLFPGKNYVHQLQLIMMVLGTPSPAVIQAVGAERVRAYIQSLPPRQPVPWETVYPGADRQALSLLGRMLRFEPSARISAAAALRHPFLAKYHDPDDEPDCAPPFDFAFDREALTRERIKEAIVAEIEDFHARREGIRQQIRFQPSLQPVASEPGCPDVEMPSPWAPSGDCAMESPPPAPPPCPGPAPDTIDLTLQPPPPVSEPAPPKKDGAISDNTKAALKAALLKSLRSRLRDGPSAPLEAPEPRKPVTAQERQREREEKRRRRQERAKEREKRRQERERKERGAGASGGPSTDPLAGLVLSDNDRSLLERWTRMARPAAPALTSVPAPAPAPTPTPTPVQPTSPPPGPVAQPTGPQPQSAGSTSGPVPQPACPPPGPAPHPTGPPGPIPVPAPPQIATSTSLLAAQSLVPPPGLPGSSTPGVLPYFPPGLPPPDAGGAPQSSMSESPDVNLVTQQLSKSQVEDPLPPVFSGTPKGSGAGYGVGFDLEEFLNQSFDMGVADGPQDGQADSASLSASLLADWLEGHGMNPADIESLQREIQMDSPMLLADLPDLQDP
testMethodNotes: Gal4-ERK5 driven luciferase induction – cell-based, HTS, primary screen (AID 1508626);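 also: luciferase driven by Gal4-ERK5 fusion binding five Gal4 sites before minimal TATA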
testParameters: HeLa Gal4-ERK5 transactivation, 18 h, at 5 µM, stronger effect = higher value
Activity calls are given as the source filed them.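 How the source made its calls: active means luciferase signal above three times the same-plate solvent-only control wells; inactive means the rest.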
experimentalReadout: luciferase signal

Ask | // luciferase signal lookup, key: C[C@@H]1O[C@@H]1P(=O)(O)O
Reply | 76 AU (inactive)

Ask | Return reported luciferase signal; argument: CC[C@H](C)[C@H](N)C(=O)N1CCC[C@H]1C(=O)N[C@H](C(=O)O)[C@@H](C)CC
Reply | 120 AU (inactive)

Ask | // lookup luciferase signal for CC1(C)O[C@H]2[C@H](O)C[C@](O)(C(N)=O)C[C@H]2O1
Reply | 20 AU (inactive)

Ask | Requested field: luciferase signal. Item: CCCCS(=N)(=O)CC[C@H](N)C(=O)O (stereo not given in full)
Reply | 48 AU (inactive)

Ask | Given the compound C[C@H](CCC(=O)O)[C@H]1CC[C@H]2[C@@H]3CC[C@@H]4C[C@H](O)CC[C@]4(C)[C@H]3C=C[C@]12C , what is its reported luciferase signal?
Reply | 16 AU (inactive)

* * *

Would you kindly list z-score for each of these molecules?
testMethodNotes: MELAS cybrid and Rieske KO viability enhancers – cell-based, MELAS cybrids, Rieske KO mouse fibroblasts, CellTiter-Glo, primary screen (AID 1508586);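 also: z relative to plate mean and SD of compound and empty wells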
testParameters: Rieske KO mouse fibroblast survival, low glucose, CellTiter-Glo 72 h
Lab note: jot down the number only; don't add units.

Ask | z-score for O=C(c1cn(Cc2cncn2Cc2ccc(Br)cc2)cc1-c1cccc2ccccc12)N1CCOCC1 ?
Reply | -1.26

Ask | Bench note: what z-score did CC(C)[C@@H]1NC(=O)[C@@H]2C[C@H](NC(=O)OCc3ccccc3)CN2C1=O show?
Reply | -0.152

Ask | # get_value(readout='z-score', item= CC1(C)S[C@@H]2C(NC(=O)Cc3ccccc3)C(=O)N2C1C(=O)O (stereo not given in full) )
Reply | -0.226

Ask | Any idea what its z-score is? The molecule is Fc1cccc(F)c1-c1nc2c(cnn2Cc2cccs2)[nH]1
Reply | 0.598

Ask | Would you kindly share the measured z-score for CC(C)C(=O)Oc1ccc(CO)cc1C(CCN(C(C)C)C(C)C)c1ccccc1 (stereo not given) ?
Reply | 0.055

Ask | Entry O=C(Nc1n[nH]c(-c2ccco2)n1)N1CCc2ccccc2C1 has what z-score?
Reply | 3.81

Ask | Which z-score reading was recorded for the molecule Cc1cccc2c(C(=O)N3C4CCCCC3CCC4)cc(-c3cncnc3)nc12 ?
Reply | -0.667

Ask | Request the reported z-score associated with COc1cccc2ccc(CN3CCC4(CC3)C(=O)N(CCc3ccccc3)C(=O)N4C)nc12
Reply | 1.51

Ask | May I ask what z-score has been recorded for O=C(O)COc1cccc2ccccc12 ?
Reply | 0.135

Ask | Using the record for Cc1nc(NC(=O)N2CCCC2C(N)=O)sc1-c1csc(C(C)(C)C)n1 (stereo not given) , report its z-score.
Reply | 0.104

Ask | So what does the record say about z-score for Cc1nn(C)c(C)c1-c1ccnc(NCCc2nc3ccc(Cl)cc3[nH]2)n1 ?
Reply | 0.453

Ask | // returns reported z-score for input CCC1C(=O)N(C)c2cnc(Nc3ccc(C(=O)NC4CCC(N5CCN(CC6CC6)CC5)CC4)cc3OC)nc2N1C(C)C (stereo not given)
Reply | -4.08

Ask | // returns reported z-score for input O=C1N[C@@H](CSCc2ccccc2)C(=O)N2CCN(C(=O)Oc3ccccc3)C[C@H]12
Reply | -0.171

Ask | For CN[C@@H]1[C@H](O[C@H]2[C@H](O[C@@H]3[C@@H](O)[C@H](O)[C@@H](N=C(N)N)[C@H](O)[C@H]3N=C(N)N)O[C@@H](C)[C@]2(O)CO)O[C@@H](CO)[C@H](O)[C@H]1O , what is its reported z-score?
Reply | -0.0139

Ask | Look up z-score for this molecule: NC(=O)c1ncn(C2OC(CO)C(O)C2O)c1N (stereo not given)
Reply | 0.0953

Ask | Using the record for Nc1nc2c(ncn2C2OC(CO)C(O)C2O)c(=O)[nH]1 (stereo not given) , report its z-score.
Reply | -0.0165

Ask | I am curious: what z-score value has been reported for CCN(CC)CCN(Cc1ccc(-c2ccc(C(F)(F)F)cc2)cc1)C(=O)Cn1c(SCc2ccc(F)cc2)nc(=O)c2c1CCC2 ?
Reply | -1.15

Ask | Given the entry O=C1CN(C(=O)Nc2nncs2)CCN1Cc1cccc(F)c1 , report its measured z-score.
Reply | -0.441

Ask | Would you mind telling me what z-score value was observed for Cc1ccnn1CCC(=O)N1CCc2c(cc(Cc3ccccc3F)c(=O)n2Cc2cccnc2)C1 ?
Reply | -0.461

Ask | Looking for the measured z-score of O=S(=O)(NCCNCC=Cc1ccc(Br)cc1)c1cccc2cnccc12 , can you help?
Reply | 0.0221
